Entry source: paper PMC11487561

measurement description: In vivo rat iv/po PK
assay context: male, Sprague-Dawley, plasma; rat (SD), po 30.0 mg/kg
assay readout: AUC(0-inf) (ng·h/mL)
Report only the number, with the unit ng·h/mL understood.

# input What does the data say about its AUC(0-inf)? Entry: Cc1nc(C)c2c(n1)sc1c(NCc3ccc(C(C)(C)O)cc3)nccc12 [22g]
# output 59200

* * *

measurement description: In vivo rat iv/po PK
assay context: male, Sprague-Dawley, plasma; rat (SD), iv 1.0 mg/kg
Description: Intravenous pharmacokinetics and plasma-brain level determination (IV PK PBL) VU6016235 […] Dawley rats (n = 1; 342 gram body weights) via injection into a surgically-implanted jugular vein catheter. […] The plasma standard curve and QCs were used for compounds quantitation in brain. […]
assay readout: MRT (h)
Report only the number, with the unit h understood.

# input What does the data say about its MRT? Entry: Cc1nc(C)c2c(n1)sc1c(NCc3ccc(C(C)(C)O)cc3)nccc12 [22g]
# output 4.3

* * *

measurement description: In vivo dog iv/po PK
assay context: male, plasma; dog (beagle), po 1.0 mg/kg, fasted
assay readout: Cmax (ng/mL)
Report only the number, with the unit ng/mL understood.

# input What does the data say about its Cmax? Entry: Cc1nc(C)c2c(n1)sc1c(NCc3ccc(C(C)(C)O)cc3)nccc12 [22g]
# output 62.4

* * *

assay target: human M4 (hM4) (Homo sapiens, UniProt P08173)
Construct: expressed in transfected cells
Sequence (P08173 1-479): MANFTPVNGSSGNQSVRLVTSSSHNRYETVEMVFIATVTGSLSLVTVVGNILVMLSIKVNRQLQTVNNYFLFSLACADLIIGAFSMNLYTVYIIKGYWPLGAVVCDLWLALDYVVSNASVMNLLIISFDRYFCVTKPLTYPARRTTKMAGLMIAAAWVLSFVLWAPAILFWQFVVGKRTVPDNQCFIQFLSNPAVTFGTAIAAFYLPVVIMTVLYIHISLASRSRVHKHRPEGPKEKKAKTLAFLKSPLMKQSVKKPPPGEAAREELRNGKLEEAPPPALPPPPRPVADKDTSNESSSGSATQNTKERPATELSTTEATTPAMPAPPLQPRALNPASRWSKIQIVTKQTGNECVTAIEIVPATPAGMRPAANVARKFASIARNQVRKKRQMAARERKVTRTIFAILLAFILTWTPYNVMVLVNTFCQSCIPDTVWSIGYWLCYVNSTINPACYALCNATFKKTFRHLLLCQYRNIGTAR
measurement description: Calcium mobilization assay, hM4/Gqi5-CHO cells, EC20 acetylcholine (PAM)
Format: cell-based
assay context: calcium mobilization, hM4/Gqi5-CHO cells, EC20 acetylcholine; read-out: hM4 pEC50 (converted)
Recorded EC50 by entry
Report only the number, with the unit nM understood.

Use these answered entries as a reference point.
Cc1nc(C)c2c(n1)sc1c(N3CC4(C3)CC(F)(F)C4)ncnc12 [14h] :: 102
Cc1nc(C)c2c(n1)sc1c(N3CCOCC3)ncnc12 [14b] :: 5500
COc1ccc(CNc2nccc3c2sc2nc(C)nc(C)c23)cc1F [22j] :: 166

# input What does the data say about its EC50? Entry: Cc1nc(C)c2c(n1)sc1c(N3CCC(F)(F)C3)nccc12 [22f]
# output 33.1

# input What does the data say about its EC50? Entry: Cc1nc(C)c2c(n1)sc1c(N3CCCCC3)nccc12 [22e]
# output 74.1

* * *

measurement description: In vivo dog iv/po PK
assay context: male, plasma; dog (beagle), iv 0.5 mg/kg
Procedure: Intravenous pharmacokinetics and plasma-brain level determination (IV PK PBL) VU6016235 […] The plasma standard curve and QCs were used for compounds quantitation in brain. […] Determination of compounds’ fraction unbound (f u) in plasma from rat and human was conducted in vitro via equilibrium dialysis using HTDialysis membrane plates. […] Mean values for each species were calculated from 3 replicates.
assay readout: half-life (h)
Report only the number, with the unit h understood.

# input What does the data say about its half-life? Entry: Cc1nc(C)c2c(n1)sc1c(NCc3ccc(C(C)(C)O)cc3)nccc12 [22g]
# output 2.4

* * *

measurement description: Binding in plasma from human (equilibrium dialysis)
Assay type: in vitro ADME
assay context: human, plasma, fraction unbound; equilibrium dialysis; read-out: human fu,plasma
assay readout: fraction unbound at 6 h, 5 µM
Give the value as a plain number.

Cc1nc(C)c2c(n1)sc1c(NCc3ccc(C(C)(C)O)cc3)nccc12 [22g] :: 0.014
Cc1nc(C)c2c(n1)sc1c(N3CCC(F)(F)C3)nccc12 [22f] :: 0.01
COc1ccc(CNc2nccc3c2sc2nc(C)nc(C)c23)cc1F [22j] :: 0.009
Cc1nc(C)c2c(n1)sc1c(N3CC4(C3)CC(F)(F)C4)ncnc12 [14h] :: 0.035
Cc1nc(C)c2c(n1)sc1c(N3CC4CC4C3)ncnc12 (stereo not shown) [14i] :: 0.013
Cc1nc(C)c2c(n1)sc1c(N3CCCC3)nccc12 [22k] :: 0.023

# input What does the data say about its fraction unbound at 6 h, 5 µM? Entry: Cc1nc(C)c2c(n1)sc1c(N3CCCCC3)nccc12 [22e]
# output 0.007

* * *

measurement description: In vivo rat iv/po PK
assay context: male, Sprague-Dawley, plasma; rat (SD), iv 1.0 mg/kg; read-out: Vss
assay readout: Vd (L/kg)
Report only the number, with the unit L/kg understood.

# input What does the data say about its Vd? Entry: Cc1nc(C)c2c(n1)sc1c(NCc3ccc(C(C)(C)O)cc3)nccc12 [22g]
# output 1.3

* * *

assay target: human M4 (hM4) (Homo sapiens)
Construct: expressed in transfected cells
Sequence (P08173 1-479): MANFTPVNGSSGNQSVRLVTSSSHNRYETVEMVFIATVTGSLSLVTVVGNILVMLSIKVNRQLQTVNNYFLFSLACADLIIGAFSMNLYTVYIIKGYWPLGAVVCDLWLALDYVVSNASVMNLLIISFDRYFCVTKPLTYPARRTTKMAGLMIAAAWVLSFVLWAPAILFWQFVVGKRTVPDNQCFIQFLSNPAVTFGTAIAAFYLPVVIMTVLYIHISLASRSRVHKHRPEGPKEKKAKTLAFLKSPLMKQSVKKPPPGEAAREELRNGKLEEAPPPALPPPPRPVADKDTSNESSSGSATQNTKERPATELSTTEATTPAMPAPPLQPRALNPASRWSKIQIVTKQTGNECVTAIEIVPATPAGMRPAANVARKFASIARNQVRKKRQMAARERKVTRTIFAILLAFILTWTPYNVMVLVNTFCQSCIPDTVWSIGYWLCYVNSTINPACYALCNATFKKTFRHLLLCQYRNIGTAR
measurement description: Calcium mobilization assay, hM4/Gqi5-CHO cells, EC20 acetylcholine (PAM)
Format: cell-based
assay context: calcium mobilization, hM4/Gqi5-CHO cells, EC20 acetylcholine; read-out: hM4 EC50
assay readout: EC50

Cc1nc(C)c2c(n1)sc1c(N3CCN(C)CC3)nccc12 [22b] :: > 10 µM
Cc1nc(C)c2c(n1)sc1c(N3CCCCC3)nccc12 [22e] :: < 0.19 µM
Cc1nc(C)c2c(n1)sc1c(N3CCCCC3)ncnc12 [14a] :: > 30 µM

// switching to the query compound
# input What measured EC50 is associated with Cc1nc(C)c2c(n1)sc1c(N3CCC(F)(F)C3)nccc12 [22f] on human M4 (hM4) (Homo sapiens)?
# output < 0.19 µM
